Assay: Caco-2 cell permeability
Type: in vitro ADME
Settings: human, Caco-2; bidirectional (ABBA), B to A; n = 1 or average of n = 2-4; read-out: Caco2 Bidirectional (ABBA) B to A Papp
Measure: Papp B→A (×10⁻⁶ cm/s)
One number for each entry, in ×10⁻⁶ cm/s.

For the compound shown here, CC1CCCN(c2ccc3nccc(C(=O)NCC(=O)N4CSC[C@H]4C#N)c3c2)C1=O (single isomer, unassigned) , give the reported Papp B→A.
8

###

Test system: Caco-2 cell
Assay: Caco-2 cell permeability
Format: in vitro ADME
Conditions: bidirectional (ABBA), A to B; n = 1 or average of n = 2-4
Measure: Caco2 Bidirectional (ABBA) A to B Papp

Check out these entries, answers already filled in.
- N#C[C@@H]1CSCN1C(=O)CNC(=O)c1ccnc2ccc(N3CCOC4(CCOCC4)C3)cc12: 0.46 1E−6 · cm/s
- N#C[C@@H]1CSCN1C(=O)CNC(=O)c1ccnc2ccc(N3CC4(COC4)C3)cc12: 0.56 1E−6 · cm/s
- N#C[C@@H]1CSCN1C(=O)CNC(=O)c1ccnc2ccc(N3CC4(CC(F)C4)C3)cc12: 4.2 1E−6 · cm/s

Next molecule, please.
For the molecule shown here, "CC1(C)COC12CN(c1ccc3nccc(C(=O)NCC(=O)N4CSC[C@H]4C#N)c3c1)C2" , give the reported Caco2 Bidirectional (ABBA) A to B Papp.
0.90 1E−6 · cm/s

###

Test: Caco-2 cell permeability
Assay type: in vitro ADME
Conditions: human, Caco-2; bidirectional (ABBA); read-out: Caco2 Bidirectional (ABBA) Efflux Ratio
Measure: efflux ratio
Numbers only.

For the compound shown here, CC1CCCN(c2ccc3nccc(C(=O)NCC(=O)N4CSC[C@H]4C#N)c3c2)C1=O (single isomer, unassigned) [Example 203] , give the reported efflux ratio.
20

###

Test: Caco-2 cell permeability
Assay type: in vitro ADME
Conditions: human, Caco-2, AB intrinsic; n = 1 or average of n = 2-4; read-out: Caco2 AB Intrinsic Papp
For each record, check the reported Papp A→B: if it is below 10 ×10⁻⁶ cm/s write true, else write false.

- N#C[C@@H]1CSCN1C(=O)CNC(=O)c1c(F)cnc2ccc(N3CCOCC3)cc12 [Example 2]: false
- CC1(C)Cc2c(-c3ccc4nccc(C(=O)NCC(=O)N5CSC[C@H]5C#N)c4c3)cnn2C1 [Example 123]: false
- CC1(O)CN(c2ccc3nccc(C(=O)NCC(=O)N4CSC[C@H]4C#N)c3c2)C1 [Example 165]: true
- CC1(C)COC12CN(c1ccc3nccc(C(=O)NCC(=O)N4CSC[C@H]4C#N)c3c1)C2 [Example 18]: false
- CC1(C)CN(c2ccc3nccc(C(=O)NCC(=O)N4CSC[C@H]4C#N)c3c2)CCO1 [Example 88]: false

Is it true that Papp A→B reported for CO[C@@H]1CN(c2ccc3nccc(C(=O)NCC(=O)N4CSC[C@H]4C#N)c3c2)[C@H]1C [Example 30] is less than 10 ×10⁻⁶ cm/s?
false

Is it true that Papp A→B reported for CC(=O)N1CC2(C1)CN(c1ccc3nccc(C(=O)NCC(=O)N4CSC[C@H]4C#N)c3c1)C2 [Example 184] is less than 10 ×10⁻⁶ cm/s?
true

Is it true that Papp A→B reported for N#C[C@@H]1CSCN1C(=O)CNC(=O)c1ccnc2ccc(N3CC(C(F)F)C3)cc12 [Example 28] is less than 10 ×10⁻⁶ cm/s?
false

The origin of these recorded values is patent US20240101549A1.
